# Test system: CAKI-1 renal
# assay-comment: NCI-60 one-dose screen, 48 h
# experimental-conditions: 10 µM unless noted
This is part of a sample that, as a whole, favours compounds with a hit. Of some 83,000 tested, about 20% had one in any assay. The source made the active and inactive calls. How the source made its calls: active means growth percent below 10; inactive means the rest.
Result category, one only: y (active), n (inactive)

Q: Fill in: this test's call for O=C(c1cc2cc(OCCCN3CCC3)ccc2[nH]1)N1C[C@@H](CCl)c2c1cc(OCc1ccccc1)c1ccccc21 is ___
A: y

Q: Fill in: this test's call for COc1ccc(Nc2nnc(-c3c[nH]c4ccccc34)o2)cc1 is ___
A: n

Q: Fill in: this test's call for Cc1ccc(C(=O)Nc2cc(-n3ccnc3)cc(C(F)(F)F)c2)cc1-n1cc(-c2cnc3cccnn23)nn1 is ___
A: n

Q: Fill in: this test's call for COC(=O)CSC1=C(C)C(=O)C(OC)=C(OC)C1=O is ___
A: n

Q: Fill in: this test's call for COc1ccc2[nH]cc(-c3cc(N)n4nc(-c5c[nH]c6ccccc56)cc4n3)c2c1 is ___
A: y

Q: Fill in: this test's call for C#CCN(C)CCCOc1ccc(N(C)C(=O)c2cc(C(C)C)c(O)cc2O)cc1Cl is ___
A: n

Q: Fill in: this test's call for N/C(=N\c1nc2ccccc2s1)NC(=O)Nc1ccccc1[N+](=O)[O-] is ___
A: n

Q: Fill in: this test's call for CN(C)c1nc(NCCNS(=O)(=O)c2ccc(C(=O)/C=C/c3ccc(Cl)cc3)cc2)nc(N2CCOCC2)n1 is ___
A: y

----------
# Test system: MDA-MB-435 melanoma
# assay-comment: NCI-60 one-dose screen, 48 h
# experimental-conditions: 10 µM unless noted
Compounds without any hit were thinned out: in the full panel of roughly 83,000, 20% have a hit. Active and inactive are the calls of the source. Rule for the calls: active = growth percent below 10; inactive = the rest.
Result category, one only: t = active, f = inactive

Q: Fill in: this test's call for Nc1nnc(-c2cncc(Br)c2)c(-c2c[nH]c3ccc(Cl)cc23)n1 is ___
A: f

Q: Fill in: this test's call for Nc1nnc(CS(=O)(=O)c2ccccc2)s1 is ___
A: f

Q: Fill in: this test's call for COc1ccc([C@H]2C(C(=O)c3ccc(Cl)cc3)C3(N[C@@H]2c2ccccc2)C(=O)Nc2ccccc23)cc1 (some centres not stated) is ___
A: f

Q: Fill in: this test's call for O=C1/C(=C/c2cnc(-c3ccccc3)s2)SC(=S)N1Cc1ccc2c(c1)OCO2 is ___
A: f

Q: Fill in: this test's call for CN1CCN(c2ccc3c4c(cccc24)C(=O)N(c2cccc(-c4nn(-c5ccccc5)cc4-c4nc5ccccc5s4)c2)C3=O)CC1 is ___
A: f

Q: Fill in: this test's call for c1ccc(CSc2nnc(-c3ccc4nc(-c5ccccc5)[nH]c4c3)o2)cc1 is ___
A: t

Q: Fill in: this test's call for Fc1ccc(N2CC(Cn3c(C(F)(F)F)cc4c(Cl)ncnc43)C2)c(F)c1 is ___
A: f

Q: Fill in: this test's call for CCC(=O)c1c2c(c3ccc4c5ccccc5ccc4n13)C(=O)c1ccccc1C2=O is ___
A: t

Q: Fill in: this test's call for COc1ccc2[nH]c(=O)c(CSc3ccccc3Nc3nccc(-c4ccc(C(F)(F)F)cc4)n3)cc2c1 is ___
A: f

Q: Fill in: this test's call for CC(C)C[C@H](NC(=O)CNC(=O)C[C@H]1O[C@@H]2OC3(C)CC[C@H]4[C@H](C)CC[C@@H]([C@H]1C)[C@@]24O3)B(O)O is ___
A: t

Q: Fill in: this test's call for O=C(c1ccc(O)cc1)C1[C@H](c2ccc(Cl)cc2)[C@@H](c2ccccc2)NC12C(=O)Nc1ccc(Br)cc12 (some centres not stated) is ___
A: t

Q: Fill in: this test's call for Cn1ncc2c(N)nc(Oc3ccccc3-c3ccccc3)nc21 is ___
A: t

Q: Fill in: this test's call for Cc1ccc(C(=O)Nc2cc(-c3ccccc3)cc(C(F)(F)F)c2)cc1C#Cc1cnc2cccnn12 is ___
A: f

Q: Fill in: this test's call for Cc1nn(-c2ccccc2)c2nc(C)n(CC(=O)N/N=C/c3cccc([N+](=O)[O-])c3)c(=O)c12 is ___
A: f

Q: Fill in: this test's call for COc1ccc2c(c1)c(-c1cc(N)n3nc(-c4c[nH]c5ccccc45)cc3n1)cn2C is ___
A: t

Q: Fill in: this test's call for COc1ccc(-c2nc3ccccc3n2CC(=O)N=Nc2c(O)[nH]c3ccc(OC)cc23)cc1 is ___
A: f

Q: Fill in: this test's call for N#Cc1ccc(C(=O)NNC(=O)CSc2nc3sc4c(c3c(=O)n2-c2ccc(Cl)cc2)CCCC4)cc1 is ___
A: f

----------
# System: HCC-2998 colon
# assay-comment: NCI-60 one-dose screen, 48 h
# experimental-conditions: 10 µM unless noted
This is part of a sample that, as a whole, favours compounds with a hit. Of some 83,000 tested, about 20% had one in any assay. Active and inactive are the calls of the source. The calls were made as follows: active = growth percent below 10; inactive = the rest.
Result category, one only: Y = active, N = inactive

Q: Fill in: this test's call for O=C(Nc1ccc(F)cc1)Nc1nc2ccc([N+](=O)[O-])cc2s1 is ___
A: N

Q: Fill in: this test's call for C=CCn1c(O)c(N=Nc2nc(-c3cc4ccccc4oc3=O)cs2)c2ccccc21 is ___
A: N

Q: Fill in: this test's call for CN(C(=O)CN1C(=O)/C(=C/c2ccco2)SC1=S)C1CCS(=O)(=O)C1 (centres undefined) is ___
A: N

Q: Fill in: this test's call for COc1ccc2c(c1)C(=O)N(C)C2C1c2c(cc3c(c2OC)OCO3)CCN1C (centres undefined) is ___
A: N

Q: Fill in: this test's call for CCOC(=O)/C(F)=C/C1CC1C1CCN(C(=O)OC(C)(C)C)CC1 (centres undefined) is ___
A: N

Q: Fill in: this test's call for CC1=C(C(=O)Nc2ccccc2)C(c2cccc(Cl)c2Cl)n2c(nc3ccccc32)N1 (centres undefined) is ___
A: N

Q: Fill in: this test's call for Cc1cc(=O)oc2cc(OCC(O)CNN3C(=O)c4cccc5c(N6CCN(C)CC6)ccc(c45)C3=O)ccc12 (centres undefined) is ___
A: N

Q: Fill in: this test's call for O=[N+]([O-])c1cccc(-c2nnc3c(/C=C/c4ccc(F)cc4)nc4ccccc4n23)c1 is ___
A: N

Q: Fill in: this test's call for CN(C)c1ccc(/C=C/c2n(Cc3ccc4ccccc4c3)c3ccccc3[n+]2Cc2ccc3ccccc3c2)cc1 is ___
A: Y

Q: Fill in: this test's call for O=C(c1ccc(O)cc1)C1[C@H](c2ccc(Cl)cc2)[C@@H](c2ccccc2)NC12C(=O)Nc1ccc(Br)cc12 (some centres undefined) is ___
A: Y

Q: Fill in: this test's call for Nc1nn2c(-c3cc4cc(Br)ccc4oc3=O)ccnc2c1N=Nc1ccccc1 is ___
A: N

Q: Fill in: this test's call for Oc1ccc(Cl)c(Nc2ncnc3c2cnn3CC(Cl)c2ccc(Br)cc2)c1 (centres undefined) is ___
A: N

Q: Fill in: this test's call for COc1ccc(N=Nc2c(N)nn3c(N)c(C#N)c(-c4ccc(C)cc4)nc23)cc1 is ___
A: N

Q: Fill in: this test's call for C[C@H]1[C@@H](CC(=O)N[C@@H](Cc2coc3ccccc23)B(O)O)O[C@@H]2OC3(C)CC[C@H]4[C@H](C)CC[C@@H]1[C@@]24O3 is ___
A: Y

Q: Fill in: this test's call for O=C(NC(=S)N1CCN(c2ncnc3c2cnn3-c2ccccc2)CC1)c1ccc(F)cc1 is ___
A: N

Q: Fill in: this test's call for COc1ccccc1NC(=O)c1ccc(NC(=O)CCl)s1 is ___
A: N

Q: Fill in: this test's call for CCc1ccccc1-c1nc(CN[C@@H]2C[C@@H]3C[C@H]([C@H]2C)C3(C)C)c(C)o1 is ___
A: Y

Q: Fill in: this test's call for C/C(=N\Nc1ccc(C(=O)O)cc1)c1cnn(-c2cc(=O)[nH]c3ccc(C)cc23)c1C is ___
A: N

Q: Fill in: this test's call for Cc1nn(-c2ccccc2)c2nc(C)n(C(=O)N/N=C/c3cccc([N+](=O)[O-])c3)c(=O)c12 is ___
A: N

Q: Fill in: this test's call for COc1ccc(N=Nc2c(N)nn3c(N)c(C#N)c(-c4ccccc4)nc23)cc1 is ___
A: N

Q: Fill in: this test's call for COc1cc(C2CC(c3ccc(Cl)cc3)=Nc3c(N)nc(N)nc3N2)ccc1Oc1nc(Nc2ccc(F)cc2)nc(N(C)C)n1 (centres undefined) is ___
A: Y

Q: Fill in: this test's call for COC(=O)c1c(C(=O)OC)c2c3ccccc3c3ccccc3n2c1C(=O)C(C)(C)C is ___
A: N

Q: Fill in: this test's call for Cc1ccc(N=Nc2c(N)nn3c(-c4cc5cc(Br)ccc5oc4=O)ccnc23)cc1 is ___
A: N

Q: Fill in: this test's call for COc1ccc(N=Nc2c(N)nn3c(-c4cc5cc(Br)ccc5oc4=O)ccnc23)cc1 is ___
A: N
